molecular target: HLA-B*35:01; assay: IEDB peptide-MHC binding, purified MHC/competitive/fluorescence; filed as Kd, often an IC50 or EC50 that approximates it; bounds were set here for any values at or beyond the usual limits of such assays; settings: source organism: Mycobacterium tuberculosis H37Rv
measurement label: Kd
Answer by giving the amount and then stating its unit.

Query: // map "AMAAAAAPY" to recorded Kd (system: HLA-B*35:01)
Result: 8.3 nM

# context switch: different sequence, same Kd
Query: State its Kd on HLA-B*35:01: "LPAGSPVAV"
Result: 2.7 nM

* * *

biological target: HLA-B*45:01; test: IEDB peptide-MHC binding, purified MHC/competitive/radioactivity; filed as Kd, often an IC50 or EC50 that approximates it; bounds were set here for any values at or beyond the usual limits of such assays; conditions: source organism: SARS coronavirus Tor2
measurement label: log10(Kd) (log10 of the value in nM)
The figures below represent log10 of Kd, where Kd is stated in nM.

Query: State the recorded log10(Kd) for this entry: "IEYSDFATSA"
Result: 2.19

Query: Likewise for "DEWSVATFYL" ?
Result: 3.00

Query: Query "EEAARCMRSL" next
Result: 1.93

More entries:
Query: I would be grateful if you could share the reported log10(Kd) for "SEFDRDAAM" .
Result: 4.26

Query: How about this sequence: "YEAMYTPHT"
Result: 2.17

Query: Same lookup for "IDYRHYSASF" , please.
Result: 2.99

Query: Request: "HEFVDEFYA"
Result: 2.20

Query: Can you handle "EEILGTVSW" next?
Result: 3.19

* * *

target: HLA-A*01:01; assay: IEDB peptide-MHC binding, purified MHC/direct/fluorescence; filed as Kd, often an IC50 or EC50 that approximates it; bounds were set here for any values at or beyond the usual limits of such assays; settings: source organism: Escherichia coli
measurement label: Kd

Query: Item under review: "RRRIGEIFK" . Reported Kd?
Result: ≥ 20 µM

* * *

biological target: HLA-C*07:02; assay: IEDB peptide-MHC binding, purified MHC/direct/fluorescence; filed as Kd, often an IC50 or EC50 that approximates it; bounds were set here for any values at or beyond the usual limits of such assays; settings: source organism: Listeria monocytogenes EGD-e
measurement label: pKd
For clarity, pKd is expressed as the negative log10 of concentration in mol/L.

Query: I have this sequence here, "RYPRSVLTF" , and I need its recorded pKd.
Result: 7.36

* * *

target: HLA-A*25:01; assay: IEDB peptide-MHC binding, purified MHC/direct/fluorescence; filed as Kd, often an IC50 or EC50 that approximates it; bounds were set here for any values at or beyond the usual limits of such assays; conditions: source organism: Campylobacter jejuni
pKd: −log10 of the molar value.
measurement label: pKd

Query: Field request: pKd | item: "YWDQVTFFY"
Result: ≤ 4.70

* * *

molecular target: HLA-A*31:01; test: IEDB peptide-MHC binding, purified MHC/competitive/radioactivity; filed as Kd, often an IC50 or EC50 that approximates it; bounds were set here for any values at or beyond the usual limits of such assays; conditions: source organism: Vaccinia virus WR
Mark true (1) only for Kd values smaller than 0.4 µM; exact matches and larger values are false (0).

Query: Could you please tell me whether Kd recorded for "ILRNYLRLY" is less than 0.4 µM?
Result: false (0)

Query: Same read-out for "TLISSDGAR" ?
Result: true (1)

Query: Queued: "HAKYMVTDK"
Result: false (0)

Query: Also "FIHMVRCCK" ?
Result: false (0)

Query: Moving on to the next sequence: "FADNDRQDIY"
Result: false (0)

Query: Now give it for "MLIFNVKSK" too.
Result: false (0)

Entry source: the Immune Epitope Database (IEDB)
